System Name: Aurora kinase A (Homo sapiens, UniProt O14965)
Sequence (O14965 whole entry): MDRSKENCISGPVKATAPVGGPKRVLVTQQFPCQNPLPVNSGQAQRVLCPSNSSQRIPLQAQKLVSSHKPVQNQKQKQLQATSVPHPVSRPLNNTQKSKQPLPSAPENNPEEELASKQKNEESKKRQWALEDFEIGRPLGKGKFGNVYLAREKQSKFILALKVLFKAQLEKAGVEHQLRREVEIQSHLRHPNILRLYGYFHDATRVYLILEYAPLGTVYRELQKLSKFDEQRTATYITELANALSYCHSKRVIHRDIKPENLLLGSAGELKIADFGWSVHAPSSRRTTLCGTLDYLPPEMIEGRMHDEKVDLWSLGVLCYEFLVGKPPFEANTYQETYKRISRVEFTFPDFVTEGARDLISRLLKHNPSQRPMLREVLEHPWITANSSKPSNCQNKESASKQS
Test: Inhibition of recombinant Aurora A (unknown origin) using myelin basic protein as substrate incubated for 30 mins in presence of DTT by [gamma-33P]-ATP based radioactive filter binding assay
Metric: IC50 (µM)

> print(dat)
                                 cpd.smiles  measured.number
1  CC(C)(COC(=O)CCC(=O)OC[C@@H]1O[C@H](n2cnc3c(N)ncnc32)[C@@H](O)[C@H]1O)[C@@H](O)C(=O)NCCC(=O)NCCS              117

###

System Name: Aurora kinase A (Homo sapiens)
Test: Inhibition of recombinant Aurora A (unknown origin) using myelin basic protein as substrate incubated for 30 mins in presence or absence of DTT by [gamma-33P]-ATP based radioactive filter binding assay
Reported IC50 values are given for each entry in this list.
Metric: IC50 (µM)

> print(dat)
                                 cpd.smiles  units.label  measured.number
1  CNC(=O)CCNC(=O)[C@H](O)C(C)(C)COC(=O)CCC(=O)OC[C@@H]1O[C@H](n2cnc3c(N)ncnc32)[C@@H](O)[C@H]1O           µM             1400
2  Nc1ncnc2c1ncn2[C@H]1O[C@@H](CNC(=O)CC(=O)O)[C@H](O)[C@@H]1O           µM              910
3  CC(C)(C)COC(=O)CCC(=O)OC[C@@H]1O[C@H](n2cnc3c(N)ncnc32)[C@@H](O)[C@H]1O           µM              430
4  CCCNC(=O)CCNC(=O)[C@H](O)C(C)(C)COC(=O)CCCC(=O)OC[C@@H]1O[C@H](n2cnc3c(N)ncnc32)[C@@H](O)[C@H]1O           µM              542
